molecular target: his-labeled human IL-13 (immunogen A) (human) (UniProt P35225); assay: ELISA, biotin-immunogen A; antibody at 0.11 nM
Kindly state OD450 nm for each of the entries shown.

Note to self: OD450 nm recorded for 28A2E11 (lead antibody, mouse hybridoma) (antibody, V domains shown, Mouse monoclonal antibody purified from hybridoma supernatant on Protein G) VH: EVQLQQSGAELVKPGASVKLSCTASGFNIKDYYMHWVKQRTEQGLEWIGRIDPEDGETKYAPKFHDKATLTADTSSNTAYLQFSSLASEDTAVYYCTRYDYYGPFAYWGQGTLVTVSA VL: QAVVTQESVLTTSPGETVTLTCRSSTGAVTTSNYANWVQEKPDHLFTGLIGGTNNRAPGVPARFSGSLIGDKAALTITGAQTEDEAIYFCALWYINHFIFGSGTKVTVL was 0.74

Note to self: OD450 nm recorded for c35E2C3 (mouse-human chimeric IL-13 antibody) (antibody, V domains shown) VH: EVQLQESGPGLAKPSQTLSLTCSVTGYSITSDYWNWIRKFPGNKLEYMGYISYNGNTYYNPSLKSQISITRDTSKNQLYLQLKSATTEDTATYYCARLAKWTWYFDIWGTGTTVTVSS VL: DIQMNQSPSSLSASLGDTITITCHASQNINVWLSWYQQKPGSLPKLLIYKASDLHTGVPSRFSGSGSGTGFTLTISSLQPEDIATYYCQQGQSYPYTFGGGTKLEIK was 0.59

Note to self: OD450 nm recorded for c28A2E11 (mouse-human chimeric IL-13 antibody) (antibody, V domains shown) VH: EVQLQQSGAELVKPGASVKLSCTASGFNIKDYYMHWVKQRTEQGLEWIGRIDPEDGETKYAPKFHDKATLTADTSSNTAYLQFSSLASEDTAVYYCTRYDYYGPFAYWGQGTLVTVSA VL: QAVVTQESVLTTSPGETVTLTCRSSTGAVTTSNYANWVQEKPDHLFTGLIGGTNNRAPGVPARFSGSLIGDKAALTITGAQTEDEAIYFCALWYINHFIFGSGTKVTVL was 0.83

Note to self: OD450 nm recorded for 35E2C3 (lead antibody, mouse hybridoma) (antibody, V domains shown, Mouse monoclonal antibody purified from hybridoma supernatant on Protein G) VH: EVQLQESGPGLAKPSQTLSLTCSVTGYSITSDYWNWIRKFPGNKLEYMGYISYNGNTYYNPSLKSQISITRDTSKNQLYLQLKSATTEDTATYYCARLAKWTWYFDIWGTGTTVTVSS VL: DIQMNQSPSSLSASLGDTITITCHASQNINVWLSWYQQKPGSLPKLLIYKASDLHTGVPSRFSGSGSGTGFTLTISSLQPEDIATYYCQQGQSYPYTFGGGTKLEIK was 0.41

Note to self: OD450 nm recorded for 29D9H8 (lead antibody, mouse hybridoma) (antibody, V domains shown, Mouse monoclonal antibody purified from hybridoma supernatant on Protein G) VH: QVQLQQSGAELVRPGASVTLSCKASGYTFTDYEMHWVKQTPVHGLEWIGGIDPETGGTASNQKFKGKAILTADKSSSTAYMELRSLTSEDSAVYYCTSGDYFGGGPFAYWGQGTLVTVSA VL: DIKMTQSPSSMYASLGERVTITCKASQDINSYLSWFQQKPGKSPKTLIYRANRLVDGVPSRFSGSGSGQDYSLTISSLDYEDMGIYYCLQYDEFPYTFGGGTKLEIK was 0.85
